experiment: AUC (0 to infinity) in CD1 mouse at 15 mg/kg, po administered as single dose; type: ADME, organism-based; design: dose 15 mg/kg, time infinity, route oral; details: in vivo
assay_endpoint: AUC(0-inf)
Include the unit after the number when you answer.

Consider Cl.N[C@@H]1C[C@H]1c1ccc(NC(=O)c2cccc(N3CCOC3=O)c2)cc1 (racemic) . Its measured AUC(0-inf) is 7.12 µM·h

###

Answer each item with its documented Tmax.
test: Tmax in CD1 mouse at 15 mg/kg, po administered as single dose; assay type: ADME, organism-based; details: in vivo
Include the unit after the number when you answer.

Example results:
{"molecule": "CN1CCN(c2ccc(C(=O)Nc3ccc([C@@H]4C[C@H]4N)cc3)cc2)CC1.Cl.Cl (racemic)", "Tmax": "12 h"}
{"molecule": "CN1CCC(c2ccc(C(=O)Nc3ccc([C@@H]4C[C@H]4N)cc3)cc2)CC1.Cl (racemic)", "Tmax": "18 h"}

Could you now consider this next molecule?
Consider Cl.N[C@@H]1C[C@H]1c1ccc(NC(=O)c2cccc(N3CCOC3=O)c2)cc1 (racemic) . Its measured Tmax is 0.667 h

###

Answer each item with its documented IC50.
Biological target: Lysine-specific histone demethylase 2 (Homo sapiens, UniProt Q8NB78)
Sequence (Q8NB78 whole entry): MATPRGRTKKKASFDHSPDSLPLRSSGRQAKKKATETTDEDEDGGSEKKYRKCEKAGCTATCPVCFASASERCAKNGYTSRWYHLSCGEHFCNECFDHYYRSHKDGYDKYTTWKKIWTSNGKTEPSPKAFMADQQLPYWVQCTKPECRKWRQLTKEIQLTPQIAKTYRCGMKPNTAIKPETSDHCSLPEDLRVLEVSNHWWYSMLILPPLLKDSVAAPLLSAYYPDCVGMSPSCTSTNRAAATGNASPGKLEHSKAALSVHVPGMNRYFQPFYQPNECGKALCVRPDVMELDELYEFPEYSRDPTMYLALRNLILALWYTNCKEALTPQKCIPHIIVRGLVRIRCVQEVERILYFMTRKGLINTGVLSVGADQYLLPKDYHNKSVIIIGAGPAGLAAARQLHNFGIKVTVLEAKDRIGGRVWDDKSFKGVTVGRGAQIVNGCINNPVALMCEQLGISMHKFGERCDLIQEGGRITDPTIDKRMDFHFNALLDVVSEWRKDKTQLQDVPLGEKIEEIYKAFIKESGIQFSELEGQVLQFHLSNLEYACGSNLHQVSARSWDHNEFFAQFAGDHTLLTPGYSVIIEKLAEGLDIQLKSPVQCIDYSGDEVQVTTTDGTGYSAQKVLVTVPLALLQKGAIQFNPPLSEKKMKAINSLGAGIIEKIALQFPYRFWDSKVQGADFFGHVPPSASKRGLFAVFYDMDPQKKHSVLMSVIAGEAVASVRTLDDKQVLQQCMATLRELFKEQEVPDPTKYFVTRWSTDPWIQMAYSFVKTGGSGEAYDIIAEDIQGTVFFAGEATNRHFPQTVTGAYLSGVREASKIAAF
Include the unit after the number when you answer.

Example results:
{"molecule": "N[C@@H]1C[C@H]1c1ccc(NC(=O)c2ccc(-c3ccoc3)cc2)cc1 (racemic)", "assay_target": "Lysine-specific histone demethylase 2 (Homo sapiens, UniProt Q8NB78)", "IC50": "51 µM"}
{"molecule": "N[C@@H]1C[C@H]1c1ccc(NC(=O)c2cccc(NC(=O)OCc3ccccc3)c2)cc1 (racemic)", "assay_target": "Lysine-specific histone demethylase 2 (Homo sapiens, UniProt Q8NB78)", "IC50": "11.6 µM"}

Items follow; give IC50 for each.
1. Cl.N[C@@H]1C[C@H]1c1ccc(NC(=O)c2cccc(N3CCOC3=O)c2)cc1 (racemic)
2. CN1CCN(c2ccc(C(=O)Nc3ccc([C@@H]4C[C@H]4N)cc3)cc2NC(=O)OCc2ccccc2)CC1 (relative stereo)
3. N[C@H]1CC[C@H](N[C@@H]2C[C@H]2c2ccccc2)CC1
4. N[C@@H]1C[C@H]1c1ccc(NC(=O)c2ccccc2)cc1

Ans:
1: 12.6 µM; 2: 4.3 µM; 3: 43.4 µM; 4: 58.3 µM

Items follow; give IC50 for each.
1. N[C@@H]1C[C@H]1c1ccc(NC(=O)c2ccc(N3CCOCC3)cc2)cc1 (racemic)
2. N[C@@H]1C[C@H]1c1ccc(NC(=O)c2ccc(NC(=O)OCc3ccccc3)c(N3CCOCC3)c2)cc1 (relative stereo)

Ans:
["74.7 µM", "14.9 µM"]

###

experiment: Anticlonogenic activity against 129sv mouse APL blast cells assessed as inhibition of colony formation of cells at 0.25 uM measured after 7 days relative to control; assay type: functional; details: 168 h
Answer each item with its documented inhibition at 0.25 µM.
Give bare numbers, in %.

{"molecule": "N[C@@H]1C[C@H]1c1ccc(NC(=O)c2ccc(N3CCOCC3)c(NC(=O)OCc3ccccc3)c2)cc1 (relative stereo)", "assay_endpoint": "inhibition at 0.25 µM", "result_unit": "%", "obs_value": 59}

Items follow; give inhibition at 0.25 µM for each.
1. N[C@@H]1C[C@H]1c1ccc(NC(=O)c2ccc(NC(=O)OCc3ccccc3)c(N3CCOCC3)c2)cc1 (relative stereo)
2. Cl.N[C@@H]1C[C@H]1c1ccc(NC(=O)c2cccc(N3CCOC3=O)c2)cc1 (racemic)
3. N[C@@H]1C[C@H]1c1ccc(NC(=O)c2ccccc2)cc1
4. N[C@H]1CC[C@H](N[C@@H]2C[C@H]2c2ccccc2)CC1

Ans:
1. 57
2. 79
3. 73
4. 84

Consider CN1CCN(c2ccc(C(=O)Nc3ccc([C@@H]4C[C@H]4N)cc3)cc2NC(=O)OCc2ccccc2)CC1 (relative stereo) . Its measured inhibition at 0.25 µM is 57

###

Answer each item with its documented pIC50.
molecular target: Amine oxidase [flavin-containing] A (Homo sapiens); test: Inhibition of human recombinant MAOA expressed in Pichia pastoris preincubated for 15 mins measured after 30 mins by bioluminescent-coupled assay
Sequence (P21397 whole entry): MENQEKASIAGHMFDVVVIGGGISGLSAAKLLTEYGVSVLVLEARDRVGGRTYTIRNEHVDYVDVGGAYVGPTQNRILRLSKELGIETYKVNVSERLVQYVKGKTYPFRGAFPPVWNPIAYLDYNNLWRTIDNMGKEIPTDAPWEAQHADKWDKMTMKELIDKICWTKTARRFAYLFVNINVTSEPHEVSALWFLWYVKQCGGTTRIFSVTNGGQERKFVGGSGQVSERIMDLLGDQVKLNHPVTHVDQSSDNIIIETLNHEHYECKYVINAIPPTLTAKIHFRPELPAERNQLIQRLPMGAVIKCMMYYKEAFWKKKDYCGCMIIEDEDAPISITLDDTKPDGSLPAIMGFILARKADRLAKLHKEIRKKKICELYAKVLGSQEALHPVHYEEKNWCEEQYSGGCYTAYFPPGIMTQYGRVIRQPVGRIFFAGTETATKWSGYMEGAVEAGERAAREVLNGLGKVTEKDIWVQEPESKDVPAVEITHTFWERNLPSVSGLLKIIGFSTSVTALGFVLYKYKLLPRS
Numbers only, as −log10 of the molar value.

{"molecule": "N[C@@H]1C[C@H]1c1ccc(NC(=O)c2ccc(N3CCOCC3)cc2)cc1 (racemic)", "pIC50": 7.26}
{"molecule": "CN1CCN(c2ccc(C(=O)Nc3ccc([C@@H]4C[C@H]4N)cc3)cc2NC(=O)OCc2ccccc2)CC1 (relative stereo)", "pIC50": 6.00}
{"molecule": "N[C@@H]1C[C@H]1c1ccc(NC(=O)c2ccc(N3CCOC3=O)cc2)cc1 (racemic)", "pIC50": 7.53}
{"molecule": "N[C@@H]1C[C@H]1c1ccc(NC(=O)c2ccc(NC(=O)OCc3ccccc3)c(N3CCOCC3)c2)cc1 (relative stereo)", "pIC50": 6.46}
{"molecule": "Cl.N[C@@H]1C[C@H]1c1ccc(NC(=O)c2cccc(N3CCOC3=O)c2)cc1 (racemic)", "pIC50": 7.04}

Items follow; give pIC50 for each.
1. N[C@H]1CC[C@H](N[C@@H]2C[C@H]2c2ccccc2)CC1
2. N[C@@H]1C[C@H]1c1ccc(NC(=O)c2ccc(-c3ccoc3)cc2)cc1 (racemic)

Ans:
[4.32, 7.40]

Items follow; give pIC50 for each.
1. N[C@@H]1C[C@H]1c1ccc(NC(=O)c2cccc(NC(=O)OCc3ccccc3)c2)cc1 (racemic)
2. N[C@@H]1C[C@H]1c1ccc(NC(=O)c2ccc(N3CCOCC3)c(NC(=O)OCc3ccccc3)c2)cc1 (relative stereo)

Ans:
1. 7.60
2. 6.71

###

Answer each item with its documented pIC50.
target: LSD1/CoREST complex (Homo sapiens); assay: Inhibition of human recombinant KDM1A/CoREST expressed in Escherichia coli using mono-methylated H3-K4 peptide as substrate assessed as H2O2 release preincubated for 15 mins followed by substrate addition measured for 12 mins by fluorescence-based microplate reader analysis
One number for each entry, as −log10 of the molar value.

Example results:
{"molecule": "CN1CCN(c2ccc(C(=O)Nc3ccc([C@H]4C[C@@H]4N)cc3)cc2)CC1", "assay_target": "LSD1/CoREST complex (Homo sapiens)", "obs_value": 6.64}
{"molecule": "N[C@@H]1C[C@H]1c1ccc(NC(=O)c2ccc(N3CCOCC3)cc2)cc1 (racemic)", "assay_target": "LSD1/CoREST complex (Homo sapiens)", "obs_value": 7.21}
{"molecule": "Cl.N[C@@H]1C[C@H]1c1ccc(NC(=O)c2cccc(N3CCOC3=O)c2)cc1 (racemic)", "assay_target": "LSD1/CoREST complex (Homo sapiens)", "obs_value": 7.55}
{"molecule": "N[C@@H]1C[C@H]1c1ccc(NC(=O)c2ccc(N3CCOC3=O)cc2)cc1 (racemic)", "assay_target": "LSD1/CoREST complex (Homo sapiens)", "obs_value": 7.47}
{"molecule": "CN1CCN(c2ccc(C(=O)Nc3ccc([C@@H]4C[C@H]4N)cc3)cc2)CC1", "assay_target": "LSD1/CoREST complex (Homo sapiens)", "obs_value": 7.08}

Items follow; give pIC50 for each.
1. N[C@@H]1C[C@H]1c1ccc(NC(=O)c2ccc(-c3ccoc3)cc2)cc1 (racemic)
2. CN1CCN(c2ccc(C(=O)Nc3ccc([C@@H]4C[C@H]4N)cc3)cc2)CC1.Cl.Cl (racemic)
3. N[C@@H]1C[C@H]1c1ccc(NC(=O)c2cccc(NC(=O)OCc3ccccc3)c2)cc1 (racemic)
4. N[C@@H]1C[C@H]1c1ccc(NC(=O)c2ccc(N3CCOCC3)c(NC(=O)OCc3ccccc3)c2)cc1 (relative stereo)
5. CN1CCC(c2ccc(C(=O)Nc3ccc([C@@H]4C[C@H]4N)cc3)cc2)CC1.Cl (racemic)

Ans:
1. 7.65
2. 6.72
3. 7.37
4. 7.21
5. 7.29

Consider N[C@@H]1C[C@H]1c1ccc(NC(=O)c2ccc(N3CCCCC3)c(NC(=O)OCc3ccccc3)c2)cc1 (relative stereo) . Its measured pIC50 is 6.51
